Data credit: patent EP2014310A2

target: T1, human KDR-Fc fusion (R&D Systems #357-KD-050) (human, UniProt P35968 20-764); experiment: fluorescence anisotropy, fluorescein-labeled peptide
T1 construct: bought
T1 sequence (P35968 20-764): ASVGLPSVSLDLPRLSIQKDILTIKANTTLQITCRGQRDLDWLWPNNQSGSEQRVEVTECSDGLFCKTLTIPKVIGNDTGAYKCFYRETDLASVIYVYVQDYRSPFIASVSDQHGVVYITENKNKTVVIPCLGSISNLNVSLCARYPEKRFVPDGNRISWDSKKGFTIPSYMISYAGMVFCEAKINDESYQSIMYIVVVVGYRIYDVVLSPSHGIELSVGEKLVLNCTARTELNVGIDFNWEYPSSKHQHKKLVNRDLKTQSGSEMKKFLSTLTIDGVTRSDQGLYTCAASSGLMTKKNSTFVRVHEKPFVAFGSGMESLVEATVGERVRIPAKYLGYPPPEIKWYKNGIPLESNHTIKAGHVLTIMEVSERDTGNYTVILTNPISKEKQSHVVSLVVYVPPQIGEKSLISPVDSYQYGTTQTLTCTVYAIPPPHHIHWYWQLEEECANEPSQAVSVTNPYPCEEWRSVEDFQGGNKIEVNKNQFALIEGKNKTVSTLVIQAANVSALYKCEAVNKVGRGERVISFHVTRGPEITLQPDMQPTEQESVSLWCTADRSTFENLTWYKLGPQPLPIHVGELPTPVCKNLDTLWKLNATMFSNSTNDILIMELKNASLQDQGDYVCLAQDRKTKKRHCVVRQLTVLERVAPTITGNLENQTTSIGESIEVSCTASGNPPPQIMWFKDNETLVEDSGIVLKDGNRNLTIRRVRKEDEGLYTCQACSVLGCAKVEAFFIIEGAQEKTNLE
Bridge positions count the residues as written; N and C are the ends.
Measure name: log10(Kd) (log10 of the value in nM)
The figures below represent log10 of Kd, where Kd is stated in nM.

>>> print(df.to_string())
                                     binder  measure_name  quantitative_result
0  Ac-AGSNWCEEDWYYCYITGTGGGK-NH2 (disulfide 6-13 (inferred); not fully specified) [SEQ ID NO:274]     log10(Kd)                 1.66
1  Ac-GDNWKCEYTQGYDYTECVYLDPGGGK-NH2 (disulfide 6-17 (inferred); not fully specified) [SEQ ID NO:302]     log10(Kd)                 2.91
2  Ac-AGPEWCEVDWYYCWLLGTGGGK-NH2 (disulfide 6-13 (inferred); not fully specified) [SEQ ID NO:276]     log10(Kd)                 1.88

Need log10(Kd), item Ac-AGFTWVECHQATGRCVEWTTGTGGGK-NH2 (disulfide 8-15 (inferred); not fully specified) [SEQ ID NO:285] 3.30

Moving on to the next binder: Ac-AGWIQCNSITGHCTSGGTGGGK-NH2 (disulfide 6-13 (inferred); not fully specified) [SEQ ID NO:268] 2.38

Moving on to the next binder: Ac-AGPWTCWLEDHLACAMLGTGGGK-NH2 (disulfide 6-14 (inferred); not fully specified) [SEQ ID NO:312] 3.59

Moving on to the next binder: Ac-SGRTTCHHQISGPHGKICVNYGSGGGK-NH2 (disulfide 6-18 (inferred); not fully specified) [SEQ ID NO:318] 2.81
